Field: pIC50. Provide a value for each of the compounds that follow.
tested on: P. falciparum 3D7 growth, pLDH absorbance; experiment: blood-stage malaria parasite growth potency – strain 3D7, dose response (AID 2305)
Here pIC50 is given on a logarithmic scale as minus log10 of the concentration in mol/L.

**Q:** Return pIC50 for the following compound: COc1c(C2CCN(CCCCNC(=O)c3ccc(-c4ccc(C(=O)C(F)(F)F)cc4)cc3)CC2)ccc2c1CCCC2
**A:** 5.96

**Q:** Return reported pIC50. Input compound: CN(C)c1ccc(CN2CCC(CNC(=O)c3cc(-c4cccc(F)c4)cs3)C2)cc1 (centres undefined)
**A:** 5.99

**Q:** Dear colleague, please send me the reported pIC50 for CN1CCC(N(C)C(=O)C=Cc2cn(-c3ccccc3)nc2-c2cc3ccccc3o2)CC1 when you can.
**A:** 5.87

**Q:** Consider the compound COc1ccc(Cl)cc1N1CCN(CCCNC(=O)c2ccc(-c3nc4cc(Cl)c(F)cc4[nH]3)s2)CC1 and give its recorded pIC50.
**A:** 6.51

**Q:** Complete the entry with pIC50 for Cc1cccc2[nH]c(-c3cccc(-c4ccc(NC(=O)COc5ccccc5C(N)=O)cc4)c3)nc12
**A:** 6.05

**Q:** Output pIC50 of CCn1c(C)c(C)c2cc(C(=O)Nc3ccon3)ccc21
**A:** 6.14

**Q:** Input CC(C)(C(=O)Nc1ccc(C2CCC(NCC3CC3)CC2)c(Cl)c1)c1ccc(C(F)(F)F)cc1 (centres undefined) , output reported pIC50.
**A:** 6.02

**Q:** Report pIC50, nothing else, for this compound: C[C@@H]1CN(c2cnn(Cc3ccc(NC(=O)Nc4ccc(F)cc4[N+](=O)[O-])cc3)c(=O)c2Cl)C[C@H](C)N1
**A:** 6.09

**Q:** Dear colleague, please send me the reported pIC50 for Cc1cc(C2NC(=O)c3ccccc3N2)c(C)n1-c1ccc2c(c1)OCO2 (centres undefined) when you can.
**A:** 6.14

---

Answer each item with its documented pIC50.
tested on: P. falciparum 3D7 growth, pLDH absorbance; test: blood-stage malaria parasite growth potency – strain 3D7, dose response (AID 2305)
In textbook form, pIC50 equals minus log to base ten of the concentration in mol/L.

**Q:** Output measured pIC50 for this item: O=C(Nc1cccc(C(F)(F)F)c1)N1CCOC(CCN2CCC(c3ccccc3)CC2)(c2ccc(Cl)c(Cl)c2)C1 (centres undefined)
**A:** 5.95

**Q:** Consider the compound CCC(=O)c1ccc(-c2ccc(=O)n(CC(=O)N(CCN(CC)CC)Cc3ccc(-c4ccc(C(F)(F)F)cc4)cc3)n2)cc1 . State its measured pIC50.
**A:** 6.14

**Q:** Retrieve pIC50 measured for CN1CCN(CCCN(Cc2ccc(-c3cccc(CNCc4ccc5c(c4)OCO5)c3)cc2)C(=O)CCC2CCCC2)CC1 and print it.
**A:** 6.00

**Q:** Give a short answer stating reported pIC50 for O=C(NCCCCN1CCC(c2ccc3c(c2OCC(O)c2ccc(Cl)cc2)CCCC3)CC1)c1ccc(-c2ccc(C(F)(F)F)cc2)cc1 (centres undefined) .
**A:** 5.98

---

test system: P. falciparum 3D7 growth, pLDH absorbance; test: blood-stage malaria parasite growth potency – strain 3D7, dose response (AID 2305)
ASSAY_ENDPOINT: IC50 (nM)
Kindly provide the numeric value in nM only, without the unit symbol.

**Q:** Report IC50 for COc1cc(C(=O)Nc2ccc(-c3nc4ccccc4[nH]3)cc2)cc(OC)c1OC
**A:** 980

**Q:** Tell me IC50 reported for OCC(c1ccccc1)n1c(COc2ccc(Cl)cc2)nc2c(OCCCN3CCCCC3)cccc21 (stereo not given)
**A:** 920

**Q:** Quickly give me recorded IC50 for CCc1ccc(C2CCN(CCCCNC(=O)c3ccc(NC(=O)c4ccc(Cl)cc4)cc3)CC2)c(OC)c1
**A:** 790

**Q:** Return IC50 for the following molecule: Cc1cccc2[nH]c(-c3cccc(-c4ccc(CNCCCN5CCCC5=O)cc4)c3)nc12
**A:** 960

**Q:** State its IC50: O=C(/C=C/c1ccc(Cl)c(Cl)c1)NCCCCCN1CCC(NC(=O)NC2CCCCC2)CC1
**A:** 560

**Q:** Quickly give me recorded IC50 for Cc1nc(C)c(-c2ccc(Oc3ccc(OC(F)(F)F)cc3)cc2)c(OC(=O)c2ccccc2)c1Cl
**A:** 180

**Q:** Give a short answer stating reported IC50 for Cc1cc(F)ccc1N(c1nc(-c2cc(Cl)ccc2Cl)cs1)C1CCNC1 (stereo not given) .
**A:** 1010

**Q:** Identify IC50 associated with the molecule O=C(NCC1CCN(Cc2ccc(F)cc2)C1)c1cc(-c2cccc(C(F)(F)F)c2)cs1 (stereo not given)
**A:** 960

**Q:** For the molecule CCC(C)NC(=O)Cn1c2ncccc2c(=O)n1-c1ccc(C)cc1 (stereo not given) , give its measured IC50 value.
**A:** 1260

**Q:** Kindly indicate its recorded IC50. Item: COc1ccc(C(=O)CCc2ccc(O)cc2)cc1
**A:** 480

**Q:** Please supply the value of reported IC50 for the item CCc1c(CCNCCCCCCNCCc2ccc([N+](=O)[O-])cc2)ccc(OC)c1OC
**A:** 730

**Q:** Return IC50 (reported value) for this molecule: O=C(C=Cc1cccc(F)c1)NC1CCC(CCN2CCc3ccc(-c4cnccn4)cc3CC2)CC1 (stereo not given)
**A:** 450

**Q:** Output IC50 of CCn1ncc(Cl)c1CN(C)S(=O)(=O)c1ccc2ccccc2c1
**A:** 820

**Q:** Return IC50 (reported value) for this molecule: CCNc1cc(C(=O)N[C@@H](Cc2ccccc2)[C@H](O)CNCCc2cccc(C(F)(F)F)c2)cc(N2CCCC2=O)c1
**A:** 880

**Q:** Recall and state the measured IC50 for Cc1ccc2nc(-c3cc(-c4cccc(CCN5CCOCC5)c4)cnc3N)[nH]c2c1 .
**A:** 170

**Q:** Report measured IC50; entry is COc1ccccc1N1CCN(c2cccc3c2nc(-c2cncc(C#N)c2)n3CCNCc2ccccc2)CC1
**A:** 710

**Q:** Item CC(C)(C)c1ccc(CN2CCC(NC(=O)c3ccc(-c4cccc(F)c4)s3)CC2)cc1 : provide IC50
**A:** 1090

**Q:** Entry CNC(=O)c1ccccc1Nc1nc(Nc2ccc(C(=O)O)cc2)ncc1Cl needs its IC50 filled in; supply it.
**A:** 950

**Q:** Complete the entry with IC50 for COc1ccccc1N1CCN(CCCCNC(=O)c2ccc(NC(=O)c3cc(Cl)cc(Cl)c3)cc2)CC1
**A:** 460

**Q:** Indicate its recorded IC50; the molecule in question is CC(C)(C)c1ccc(CN2CCC(CNC(=O)c3cc(-c4ccccc4)nc4ccccc34)CC2)cc1
**A:** 1020
